Listing of entries alongside the reported pIC50.
molecular target: Cytochrome P450 11B2, mitochondrial (Homo sapiens, UniProt P19099); assay: Inhibition of human CYP11B2 expressed in human renal leiomyoblastoma cells harboring FDXR/FDX using 1-deoxycorticosterone as substrate by HTRF assay; assay type: cell-based
Reminder that pIC50 means the negative base-10 logarithm of the concentration expressed in mol/L.

For orientation, consider the following solved cases.
> print(dat)
                                   compound  measure  recorded.value
1  CC(=O)N1CC[C@H](Oc2cncc(N3C(=O)c4ccc(Cl)cc4C3(C)C)c2)C1    pIC50            8.15
2  CCC(=O)N[C@@H]1CCCc2c1cncc2N1C(=O)c2ccc(Cl)cc2[C@@H]1C    pIC50            8.22
3  CS(=O)(=O)N[C@@H]1CCCc2c1cncc2N1Cc2cc(Cl)ccc2C1=O    pIC50            6.00
4  CC(=O)N1CCN(c2cncc(N3C(=O)c4ccc(Cl)cc4C3(C)C)c2)CC1    pIC50            8.05
5  CCC(=O)N[C@@H]1CCCc2c1cncc2N1C(=O)c2ccc(Cl)cc2[C@H]1CC    pIC50            7.05

Give its pIC50 value. Item: CCS(=O)(=O)N1CC2(CN(c3cncc(N4C(=O)c5ccc(Cl)cc5C4(C)C)c3)C2)C1
7.80

Give its pIC50 value. Item: Cc1cccnc1C(=O)NCc1cncc(N2C(=O)c3ccc(Cl)cc3C2(C)C)c1
8.05

Give its pIC50 value. Item: CC(=O)NCc1cncc(N2C(=O)c3ccc(Cl)cc3C2(C)C)c1
7.23

Give its pIC50 value. Item: O=C1c2ccc(Cl)cc2C(Cc2ccccc2)N1c1cccnc1 (stereo not given)
5.97

###

Listing of entries alongside the reported predicted hepatic clearance (CLH).
experiment: Intrinsic clearance in mouse liver microsomes preincubated for 10 mins followed by NADPH regenerating system addition and measured up to 30 mins by LC/MS-MS analysis; assay type: ADME, Microsome
Write the value in mL/min/kg as a bare number.

> print(dat)
                                   compound  recorded.value
1  CC1c2cc(Cl)ccc2C(=O)N1c1cccnc1 (stereo not given)            66.5
2         CC1(C)c2cc(Cl)ccc2C(=O)N1c1cccnc1              25
3  CC1CN(c2cccnc2)C(=O)c2ccc(Cl)cc21 (stereo not given)              45

Give its predicted hepatic clearance (CLH) value. Item: CCC(=O)N[C@@H]1CCCc2c1cncc2N1C(=O)c2ccc(Cl)cc2[C@H]1CC
44.9

###

assay: Selectivity ratio of IC50 for human CYP11B1 expressed in human renal leiomyoblastoma cells harboring FDXR/FDX to IC50 for human CYP11B2 expressed in human renal leiomyoblastoma cells harboring FDXR/FDX; type: cell-based
Category key, based on recorded Ratio IC50: low class = under 40, middle class = from 40 up to 60, high class = 60 and over

Example results:
> print(dat)
                                   compound    category
1  CC(=O)N[C@@H]1CCCc2c1cncc2N1C(=O)c2ccc(Cl)cc2[C@H]1C1CC1  high class
2  CCC(=O)N[C@@H]1CCCc2c1cncc2N1C(=O)c2ccc(Cl)cc2[C@H]1C  high class
3  CS(=O)(=O)N[C@@H]1CCCc2c1cncc2N1Cc2cc(Cl)ccc2C1=O   low class

For CC(=O)NCc1cncc(N2C(=O)c3ccc(Cl)cc3C2(C)C)c1 , which Ratio IC50 bin applies?
middle class

For O=C1c2ccc(Cl)cc2C2(CC2)N1c1cccnc1 , which Ratio IC50 bin applies?
low class

For CC(=O)N1CCN(c2cncc(N3C(=O)c4ccc(Cl)cc4C3(C)C)c2)CC1 , which Ratio IC50 bin applies?
high class

For CC[C@H]1c2cc(Cl)ccc2C(=O)N1c1cncc2c1CCC[C@H]2NC(C)=O , which Ratio IC50 bin applies?
low class

For CC(=O)N[C@@H]1CCCc2c1cncc2N1Cc2cc(Cl)ccc2C1=O , which Ratio IC50 bin applies?
middle class

For CCC(=O)NCc1cncc(N2C(=O)c3ccc(Cl)cc3C2(C)C)c1 , which Ratio IC50 bin applies?
low class

For CCS(=O)(=O)N1CCC(c2cncc(N3C(=O)c4ccc(Cl)cc4C3(C)C)c2)CC1 , which Ratio IC50 bin applies?
high class

For O=C1c2ccc(Cl)cc2C(Cc2ccccc2)N1c1cccnc1 (configuration not stated) , which Ratio IC50 bin applies?
low class

For N#Cc1ccc2c(c1)CN(c1cccnc1)C2=O , which Ratio IC50 bin applies?
high class

###

experiment: Permeability of the compound measured at 18 hrs by PAMPA; format: ADME; conditions: read-out: permeability
Listing of entries alongside the reported Papp at 18 h.

For orientation, consider the following solved cases.
> print(dat)
                            smiles.notation   recorded.value
1  CC1(C)c2cc(Cl)ccc2C(=O)N1c1cncc(N2CCN(S(C)(=O)=O)CC2)c1  6.03 ×10⁻⁶ cm/s
2  Cc1ccncc1C(=O)N1CC(Oc2cncc(N3C(=O)c4ccc(Cl)cc4C3(C)C)c2)C1   5.4 ×10⁻⁶ cm/s
3  CCS(=O)(=O)N1CC(Oc2cncc(N3C(=O)c4ccc(Cl)cc4C3(C)C)c2)C1  4.17 ×10⁻⁶ cm/s
4  Cn1cc(C(=O)N2CC(Oc3cncc(N4C(=O)c5ccc(Cl)cc5C4(C)C)c3)C2)cn1  3.45 ×10⁻⁶ cm/s
5  CC1(C)c2cc(Cl)ccc2C(=O)N1c1cncc(OC2CN(C(=O)c3ncccc3Cl)C2)c1  3.32 ×10⁻⁶ cm/s

Give its Papp at 18 h value. Item: Cn1cc(C(=O)N2CC3(C2)CN(c2cncc(N4C(=O)c5ccc(Cl)cc5C4(C)C)c2)C3)cn1
3.63 ×10⁻⁶ cm/s

Give its Papp at 18 h value. Item: CCC(=O)N[C@@H]1CCCc2c1cncc2N1Cc2cc(Cl)ccc2C1=O
3.63 ×10⁻⁶ cm/s

Give its Papp at 18 h value. Item: CCS(=O)(=O)N1CCC(c2cncc(N3C(=O)c4ccc(Cl)cc4C3(C)C)c2)CC1
4.01 ×10⁻⁶ cm/s

###

experiment: Intrinsic clearance in cynomolgus monkey hepatocytes; type: ADME, cell-based, Macaca fascicularis, Hepatocyte; settings: read-out: CLH
Measure: CLint scaled (mL/min/kg)
Write the value in mL/min/kg as a bare number.

Give its CLint scaled value. Item: CCS(=O)(=O)N1CC(Oc2cncc(N3C(=O)c4ccc(Cl)cc4C3(C)C)c2)C1
7.2

###

Molecular target: Cytochrome P450 11B2, mitochondrial (Homo sapiens, UniProt P19099)
Sequence (P19099 whole entry): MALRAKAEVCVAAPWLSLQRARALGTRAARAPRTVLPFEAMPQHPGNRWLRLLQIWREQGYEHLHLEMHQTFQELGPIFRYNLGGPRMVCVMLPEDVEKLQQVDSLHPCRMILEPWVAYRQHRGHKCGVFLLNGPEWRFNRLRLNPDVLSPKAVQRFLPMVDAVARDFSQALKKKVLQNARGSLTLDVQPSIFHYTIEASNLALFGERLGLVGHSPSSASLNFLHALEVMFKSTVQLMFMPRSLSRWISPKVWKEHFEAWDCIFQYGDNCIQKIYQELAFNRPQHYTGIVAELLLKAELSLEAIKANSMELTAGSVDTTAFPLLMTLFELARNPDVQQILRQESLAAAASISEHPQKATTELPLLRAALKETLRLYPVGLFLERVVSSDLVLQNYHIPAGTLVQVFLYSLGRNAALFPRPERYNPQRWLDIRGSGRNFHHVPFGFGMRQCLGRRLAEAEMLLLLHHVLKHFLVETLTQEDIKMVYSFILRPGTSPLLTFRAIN
Experiment: Inhibition of CYP11B2 in H295R cell assessed as reduction in aldosterone by LC/MS-MS method
pIC50: −log10 of the molar value.
Measure: pIC50

Give its pIC50 value. Item: CCS(=O)(=O)N1CC(Oc2cncc(N3C(=O)c4ccc(Cl)cc4C3(C)C)c2)C1
> 9.00

###

assay: Intrinsic clearance in human liver microsomes preincubated for 10 mins followed by NADPH regenerating system addition and measured up to 30 mins by LC/MS-MS analysis; type: ADME, Microsome; conditions: read-out: CLH
Listing of entries alongside the reported predicted hepatic clearance.
Write the value in mL/min/kg as a bare number.

> print(dat)
                                   compound                      measure  unit.text  recorded.value
1  CC1CN(c2cccnc2)C(=O)c2ccc(Cl)cc21 (stereo not drawn)  predicted hepatic clearance  mL/min/kg             6.6

# context switch: different compound, same predicted hepatic clearance
Give its predicted hepatic clearance value. Item: N#Cc1ccc2c(c1)CN(c1cccnc1)C2=O
8.7

###

Listing of entries alongside the reported AUC(0-inf).
assay: AUC (0 to infinity) in Wister-Han rat at 3 mg/kg, po administered as single dose by LC/MS-MS analysis; assay type: ADME, organism-based; set-up: dose 3 mg/kg, route oral, time infinity; details: Wistar-Han, in vivo
Write the value in ng·h/mL as a bare number.

For orientation, consider the following solved cases.
> print(dat)
                            smiles.notation     measure  recorded.value
1  CC1(C)c2cc(Cl)ccc2C(=O)N1c1cncc(N2CCN(S(C)(=O)=O)CC2)c1  AUC(0-inf)            1640
2  CCS(=O)(=O)N1CC(Oc2cncc(N3C(=O)c4ccc(Cl)cc4C3(C)C)c2)C1  AUC(0-inf)            6370
3  Cn1cc(C(=O)N2CC3(C2)CN(c2cncc(N4C(=O)c5ccc(Cl)cc5C4(C)C)c2)C3)cn1  AUC(0-inf)            5660
4  Cc1ccncc1C(=O)N1CC(Oc2cncc(N3C(=O)c4ccc(Cl)cc4C3(C)C)c2)C1  AUC(0-inf)            1020
5  CCS(=O)(=O)N1CCC(c2cncc(N3C(=O)c4ccc(Cl)cc4C3(C)C)c2)CC1  AUC(0-inf)            1460

Give its AUC(0-inf) value. Item: CC1(C)c2cc(Cl)ccc2C(=O)N1c1cncc(OC2CN(C(=O)c3ncccc3Cl)C2)c1
10800

Give its AUC(0-inf) value. Item: Cn1cc(C(=O)N2CC(Oc3cncc(N4C(=O)c5ccc(Cl)cc5C4(C)C)c3)C2)cn1
7880

# credit: ChEMBL document CHEMBL4616681
